Reported MIC is given for each of the following compounds.
system: Ps. aeruginosa AK 109; test: in vitro antibacterial activity, agar plate dilution method (MIC); format: cell-based, Pseudomonas aeruginosa; settings: Pseudomonas aeruginosa, AK109, 16 h, Ps. aeruginosa AK 109; 10^6 CFU/ml; read-out: Minimum Inhibitory Concentration (MIC)
A number alone suffices; assume µg/mL.

For orientation, consider the following solved cases.
CO/N=C(\C(=O)N[C@@H]1C(=O)N2C(C(=O)O)=C(CSc3nc(-c4ccc(O)cc4)c(CC(=O)O)s3)CS[C@H]12)c1csc(N)n1 [compound 17, reference compound]
50
CC(C)(O/N=C(\C(=O)N[C@@H]1C(=O)N2C(C(=O)O)=C(CSc3ncc(-c4ccccc4)o3)CS[C@H]12)c1csc(N)n1)C(=O)O [compound 22, reference compound]
50
Nc1nc(/C(=N/OC2(C(=O)O)CC2)C(=O)N[C@@H]2C(=O)N3C(C(=O)O)=C(CSc4nnc(-c5ccc(O)c(O)c5)s4)CS[C@H]23)cs1 [Ex. 35]
0.2

Lookup: Which value of MIC has been reported for CO/N=C(\C(=O)N[C@@H]1C(=O)N2C(C(=O)O)=C(CSc3ncc(-c4ccc(O)cc4)o3)CS[C@H]12)c1csc(N)n1 [compound 23, reference compound] in the records?
Found: 50

Lookup: Which value of MIC has been reported for Nc1nc(/C(=N/OC2(C(=O)O)CC2)C(=O)N[C@@H]2C(=O)N3C(C(=O)O)=C(CSc4nnc(-c5ccc(O)c(O)c5)o4)CS[C@H]23)cs1 [Ex. 12] in the records?
Found: 0.2

Lookup: Which value of MIC has been reported for CC(C)(O/N=C(\C(=O)N[C@@H]1C(=O)N2C(C(=O)O)=C(CSc3nnc(-c4ccccc4)s3)CS[C@H]12)c1csc(N)n1)C(=O)O [compound 6, reference compound] in the records?
Found: 100
